ASSAYED_TARGET: HSV-1 glycoprotein D-Fc fusion protein (HSV-1) (UniProt Q69091)
ASSAY_NOTES: SPR Biacore T200, single cycle kinetics, G-Fc captured on anti-human IgG, 1:1 fit, second run
Below is a list of entries, each paired with its recorded Kd value.
Answer format: numeric, nM implied, no suffix.

Entry 3-G-75_M13R (VHH, not shown: small tags and cut ends) VHH: QVKLEESGGGVVQDGGSLRLSCAAIEQFFTTNAMAWFRQAPGKERELVAATDWSGQSTSYADSVKGRFTISRDTAKNVMYLQMNILHTEDTAVYYCARAPGRVLLTSDLESYTIWGQGTQVTVSS — recorded Kd = 3.86

Entry 3-G-77_M13R (VHH, not shown: small tags and cut ends) VHH: QVQLVESGGGLVQPGGSLRLSCSASGFSFAFKNYAMSWVRQAPGKGLEWVSTMSGGGGDTKYADSVKGRFTISRDNNKNTVYLQMNSLKPEDTAVYYCAKGWITNNQFAFAPRGQGTQVTVSS — recorded Kd = 0.18

Entry 3-G-44_M13R (VHH, not shown: small tags and cut ends) VHH: QVQLVESGGGLVQPGGSLRLSCTASGFSFAFKNYAMSWVRQAPGKGLEWVSTMSGGGGDTKYADSVKGRFTISRDNAKNAVYLQMNSLKPEDTAVYYCAKGWITTDQFATAPRGQGTQVTVSS — recorded Kd = 0.048
